Answer each item with its documented pEC50.
- Test system: HBV AD38 viral particles in HepG2 cell line overexpressing NTCP
- TEST_DETAILS: HBV DNA Quantification Assay
- Type: cell-based
- CONDITION_DETAILS: Hepatitis B virus, HepG2, 120 h, HBV-infected HepG2-NTCP cells, 5 days incubation, HBV DNA in culture supernatant (QuantiGene 2.0); geometric mean of a minimum of four determinations
Keep in mind that pEC50 stands for -log10 of concentration in molar terms.

Recorded pEC50 of CNC(=O)C1(NC(=O)C(=O)c2c(C)c(C(=O)Nc3cc(F)c(F)c(F)c3)n3c2CCC3)CC(F)(F)C1 [Example 36] , please.
7.62

Record: CNC(=O)C1(NC(=O)C(=O)c2c(C)c(C(=O)Nc3cc(F)c(F)c(F)c3)n3c2C[C@H]2C[C@H]23)CC(F)(F)C1 [Example 38]
7.89

Entry to check: CNC(=O)[C@](C)(NC(=O)C(=O)c1c(C)c(C(=O)Nc2ccc(F)c(F)c2)n2c1CCC2)C(F)(F)F [Example 138]
6.80

----------
- TEST_DETAILS: Hepatic Stability Assay (in vitro half-life method)
- Type: in vitro ADME
- Set-up: dose or concentration left out as unconfirmed
- CONDITION_DETAILS: pooled cryopreserved hepatocytes, 37° C., 1×10^6 cells/mL, 0-6 hours, LC-MS/MS, 39.5 hours is the maximum detectable half life, read-out: t½ (converted)
Would you mind telling me the reported half-life of each entry?
Respond numerically; units are h and should not be typed.

Give the measured half-life of CNC(=O)[C@@](C)(NC(=O)C(=O)c1c(C)c(C(=O)Nc2ccc(F)c(F)c2)n2c1CCC2)C(F)(F)F [Example 137] .
7.4

Cc1c(C(=O)C(=O)NC2(c3cnn[nH]3)CC(F)(F)C2)c2n(c1C(=O)Nc1ccc(F)cc1)[C@@H]1C[C@@H]1C2 [Example 100] , same question.
3.1

Also Cc1c(C(=O)C(=O)N[C@H](C)C(F)(F)F)c2n(c1C(=O)Nc1ccc(F)c(Cl)c1)C(C)CC2 (single isomer, unassigned) [Example 24] , if possible.
5

// query: CNC(=O)C1(NC(=O)C(=O)c2c(C)c(C(=O)Nc3ccc(F)c(Cl)c3)n3c2C[C@H]2C[C@H]23)CC(F)(F)C1 [Example 5]
5.2

Lookup Cc1c(C(=O)C(=O)NC2(c3c[nH]nn3)CC2)c2n(c1C(=O)Nc1ccc(F)c(F)c1F)CCC2 [Example 111]
10.1

Param item: Cc1c(C(=O)C(=O)NC2(C(=O)N3CC4(C3)CS(=O)(=O)C4)CC(F)(F)C2)c2n(c1C(=O)Nc1ccc(F)c(Cl)c1)CCC2 [Example 13]
16.4

Let us now turn to CNC(=O)C1(NC(=O)C(=O)c2c(C)c(C(=O)Nc3ccc(F)c(Cl)c3)n3c2C[C@@H]2C[C@@H]23)CC(F)(F)C1 [Example 4]
7.3

Follow-up item: Cc1c(C(=O)C(=O)NC2(C#N)CC(F)(F)C2)c2n(c1C(=O)Nc1ccc(F)c(F)c1)CCC2 [Example 131]
7.6

Follow-up item: Cc1c(C(=O)C(=O)NC2(c3c[nH]nn3)CC2)c2n(c1C(=O)Nc1ccc(F)c(C(F)F)c1)CCC2 [Example 77]
22.1

Please do the same for Cc1c(C(=O)C(=O)NC2(c3c[nH]nn3)CC(F)(F)C2)c2n(c1C(=O)Nc1ccc(F)c(C(F)F)c1)CCC2 [Example 89] as well.
10.3

Also, Cc1c(C(=O)C(=O)NC2(CO)CC(F)(F)C2)c2n(c1C(=O)Nc1ccc(F)c(Cl)c1)CCC2 [Example 117] please.
10.5

Now this one: Cc1c(C(=O)C(=O)NC2(C(=O)N3CC(F)C3)CC(F)(F)C2)c2n(c1C(=O)Nc1ccc(F)c(Cl)c1)CCC2 [Example 14]
2.1

Please do the same for Cc1c(C(=O)C(=O)NC2(C)CS(=O)(=O)C2)c2n(c1C(=O)Nc1ccc(F)c(Cl)c1)[C@@H]1C[C@@H]1C2 [Example 71] as well.
7.3

What do you get for Cc1c(C(=O)C(=O)NC2(c3cnn[nH]3)CC2)c2n(c1C(=O)Nc1cc(Cl)ccc1F)CCC2 [Example 86] ?
9.4

And for Cc1c(C(=O)C(=O)NC2(c3c[nH]nn3)COC2)c2n(c1C(=O)Nc1ccc(F)c(F)c1)[C@@H]1C[C@@H]1C2 [Example 87] ?
6.3

What about Cc1c(C(=O)C(=O)N[C@](C)(CO)C(F)(F)F)c2n(c1C(=O)Nc1ccc(F)c(Cl)c1)CCC2 [Example 132] ?
7.7

Input Cc1c(C(=O)C(=O)NC2(c3c[nH]nn3)CC(F)(F)C2)c2n(c1C(=O)Nc1ccnc(C(F)F)c1)[C@@H]1C[C@@H]1C2 [Example 78]
4.8

# iterate: Cc1c(C(=O)C(=O)NC2(c3c[nH]nn3)CC(F)(F)C2)c2n(c1C(=O)Nc1cc(F)c(F)c(F)c1)CCC2 [Example 53]
10.8

// same read-out, input: Cc1c(C(=O)C(=O)NC2(c3nncs3)CC2)c2n(c1C(=O)Nc1ccc(F)c(F)c1)[C@@H]1C[C@@H]1C2 [Example 61]
5.4

// next record Cc1nnc(C2(NC(=O)C(=O)c3c(C)c(C(=O)Nc4ccc(F)c(Cl)c4)n4c3CCC4)CC2)[nH]1 [Example 51]
9.5

Field entry: CNC(=O)C(C)(C)NC(=O)C(=O)c1c(C)c(C(=O)Nc2cc(F)c(F)c(F)c2)n2c1CCC2 [Example 83]
19.2

----------
- System: pooled cryopreserved hepatocytes
- TEST_DETAILS: Hepatic Stability Assay (in vitro half-life method)
- Format: in vitro ADME
- Design: dose or concentration left out as unconfirmed
- CONDITION_DETAILS: 37° C., 1×10^6 cells/mL, 0-6 hours, LC-MS/MS, 39.5 hours is the maximum detectable half life
REPORTED_METRIC: t½ (h)
Record the value in h, omitting the unit from your answer.

Using the record for CNC(=O)C1(NC(=O)C(=O)c2c(C)c(C(=O)Nc3ccc(F)c(Cl)c3)n3c2CCC3C)CC(F)(F)C1 (single isomer, unassigned) [Example 22] , report its t½.
2.7

Also, `CNC(=O)C1(NC(=O)C(=O)c2c(C)c(C(=O)Nc3ccc(F)c(C(F)F)c3)n3c2CCC3)CC(F)(F)C1` please.
39.5

Entry to check: Cc1c(C(=O)C(=O)N[C@H](C)C(F)(F)F)c2n(c1C(=O)Nc1ccc(F)c(Cl)c1)C(C)CC2 (single isomer, unassigned)
9.1

Cool, now `Cc1c(C(=O)C(=O)NC2(C)CS(=O)(=O)C2)c2n(c1C(=O)Nc1ccc(F)c(C#N)c1)[C@@H]1C[C@@H]1C2`
39.5

Could you do the same for `Cc1c(C(=O)C(=O)NC2(c3c[nH]nn3)CC2)c2n(c1C(=O)Nc1ccc(F)cc1)CCC2` , please?
39.5

----------
Hi there, I'd appreciate the recorded pEC50 for every entry that follows.
- System: HBV AD38 viral particles in HepG2 cell line overexpressing NTCP
- TEST_DETAILS: HBV DNA Quantification Assay
- Type: cell-based
- CONDITION_DETAILS: Hepatitis B virus, HepG2, 120 h, HBV-infected HepG2-NTCP cells, 5 days incubation, HBV DNA in culture supernatant (QuantiGene 2.0); geometric mean of a minimum of four determinations
- Description: HBV DNA Quantification Assay […] The culture supernatant was harvested and treated with lysis buffer containing Proteinase K (Affymetrix, Santa Clara, Calif.). […] After the final wash step, the alkaline phosphatase substrate (Luminol APS5) was added and the resulting luminescence signal was read in an EnVision Multilabel Plate Reader (PerkinElmer, Santa Clara, Calif.). The EC50 values were calculated from the fit of the dose—response curves to a four-parameter equation. […]
API: returns pEC50 as number; meaning -log10 of concentration in mol/L.

Param item = Cc1c(C(=O)C(=O)NC2(c3c[nH]nn3)CC(F)(F)C2)c2n(c1C(=O)Nc1ccc(F)c(Cl)c1)CCC2 [Example 29] ; retrieve measured pEC50.
8.51

Record: CNC(=O)C1(NC(=O)C(=O)c2c(C)c(C(=O)Nc3ccc(F)c(C#N)c3)n3c2CCC3C)CC(F)(F)C1 (centres unmarked) [Example 19]
6.78

Queued: Cc1c(C(=O)C(=O)NC2(c3ccccc3)CC2)c2n(c1C(=O)Nc1ccc(F)c(Cl)c1)CCC2 [Example 66]
8.19

Same question for Cc1c(C(=O)C(=O)NC2(C(=O)N3CC4(C3)CS(=O)(=O)C4)CC(F)(F)C2)c2n(c1C(=O)Nc1ccc(F)c(Cl)c1)CCC2 [Example 13] please.
6.60

Thanks! And CNC(=O)C1(NC(=O)C(=O)c2c(C)c(C(=O)Nc3ccc(F)c(Cl)c3)n3c2CCC3)CC1 [Example 105] ?
6.77

Try the compound CNC(=O)C1(NC(=O)C(=O)c2c(C)c(C(=O)Nc3ccc(F)c(F)c3)n3c2CCC3)CC(F)(F)C1 [Example 44]
7.51

Lookup Cc1c(C(=O)C(=O)NC2(c3c[nH]nn3)CC2)c2n(c1C(=O)Nc1ccc(F)c(Cl)c1)[C@@H]1C[C@@H]1C2 [Example 52]
8.11

Further, for Cc1c(C(=O)C(=O)NC2(C(=O)N3CC(F)C3)CC(F)(F)C2)c2n(c1C(=O)Nc1ccc(F)c(Cl)c1)CCC2 [Example 14] ?
8.06
